- Test system: UACC-257 melanoma
- measurementProtocol: NCI tumour cell line growth inhibition, 48 h
Please provide measured TGI for the entries that follow.
Numbers only, in µM.

# smilesRepresentation, unit, recordedValue
data = [
    ("CCCN(CCC)C(=O)C1=Cc2ccc(-c3ccc(C(=O)N4CCCC4)cc3)cc2N=C(N)C1", "µM", 22.3),
]

Shifting focus to the compound that follows.
TGI measured on CC1=C(C)C(=O)O[C@@H]([C@](C)(O)[C@]2(O)CC[C@@]3(O)[C@@H]4C[C@H]5O[C@]56[C@@H](O)C=CC(=O)[C@]6(C)[C@H]4CC[C@]23C)C1 = 3.84

The values you see were collected from PubChem BioAssay (NCI).
